The measurements presented in this section are drawn from ChEMBL document CHEMBL1135291.

- TESTED TARGET: 72 kDa type IV collagenase (Homo sapiens) (UniProt P08253)
- Sequence (P08253 110-660 limits assumed): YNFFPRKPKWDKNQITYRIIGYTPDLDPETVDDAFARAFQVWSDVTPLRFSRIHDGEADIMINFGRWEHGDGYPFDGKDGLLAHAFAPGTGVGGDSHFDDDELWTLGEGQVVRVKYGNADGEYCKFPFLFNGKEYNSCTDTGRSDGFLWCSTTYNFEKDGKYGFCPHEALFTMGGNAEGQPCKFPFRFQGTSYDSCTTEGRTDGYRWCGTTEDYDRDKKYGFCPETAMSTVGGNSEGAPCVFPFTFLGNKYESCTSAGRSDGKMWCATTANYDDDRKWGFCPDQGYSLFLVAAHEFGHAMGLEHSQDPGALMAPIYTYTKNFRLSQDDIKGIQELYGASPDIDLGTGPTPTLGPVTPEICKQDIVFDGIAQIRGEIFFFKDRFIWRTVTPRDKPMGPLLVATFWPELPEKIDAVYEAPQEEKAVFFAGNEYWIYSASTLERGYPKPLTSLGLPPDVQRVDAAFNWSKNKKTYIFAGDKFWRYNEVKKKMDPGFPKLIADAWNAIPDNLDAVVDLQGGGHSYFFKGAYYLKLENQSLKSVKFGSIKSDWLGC
- TEST PROTOCOL: Inhibition of Matrix metalloprotease-2 at 50 uM
Param threshold (50%) applies to inhibition; output true when value >= threshold, false when value < threshold.

The examples below pair each entry with its known result.
MOLECULE	CLASS LABEL
O=P(O)(O)CB(O)O	false
COP(=O)(CC1OC(C)(C)C(C)(C)O1)OC	false
CC1(C)OB(C(CCCCl)P(=O)(O)O)OC1(C)C (configuration not stated)	true
CC1(C)OB(/C=C/CP(=O)(O)O)OC1(C)C	true

Okay, now this molecule:
Exercise: Reported inhibition at or above 50%? CC1(C)OB(C(Cc2ccccc2)P(=O)(O)O)OC1(C)C (configuration not stated)
Solution: false
